// reported growth for each item listed
tested on: SK-MEL-2 melanoma; test: NCI-60 one-dose screen, 48 h (100 = growth as untreated, 0 = no growth, -100 = all killed); conditions: 10 µM unless noted
About 83,000 compounds went through this panel and 20% of them were active in at least one assay; those are over-represented in the sample as a whole. Activity calls are given as the source filed them. The calls were made as follows: active = growth percent below 10; inactive = the rest.
measuredMetric: growth

INSERT INTO results (compound, measuredmetric, value) VALUES
  ('CC(=O)N(N=Nc1ccccc1)c1cccc2ccccc12', 'growth', '20.1% (inactive)'),
  ('O=C1c2ccc3c4ccc5c6c(ccc(c7ccc(c2c37)C(=O)N1CCC[P+](c1ccccc1)(c1ccccc1)c1ccccc1)c64)C(=O)N(CCC[P+](c1ccccc1)(c1ccccc1)c1ccccc1)C5=O', 'growth', '98.7% (inactive)'),
  ('COc1ccc2[nH]cc(C(c3cc(F)cc(F)c3)c3c[nH]c4ccc(OC)cc34)c2c1', 'growth', '62.5% (inactive)'),
  ('Cc1nc2c(=O)[nH]c(SCC(=O)Nc3cccc(F)c3)nc2[nH]c1=O', 'growth', '103% (inactive)'),
  ('COc1ccc2cc(-c3ccc(NC(C)=O)c(=O)o3)ccc2c1', 'growth', '98.6% (inactive)'),
  ('COc1ccc(-c2cc(-c3ccc(Cl)cc3)c(C#N)c(=O)n2CCCCC(=O)Nc2ccccc2N)cc1', 'growth', '79.7% (inactive)'),
  ('O=C1c2cccnc2C(=O)c2c1c(C(=O)NCCn1ccnc1)c1ccccn21', 'growth', '26.6% (inactive)'),
  ('O=C(CSc1nc2ccc([N+](=O)[O-])cc2[nH]1)Nc1ccc(F)cc1', 'growth', '63.6% (inactive)'),
  ('O=C(NCCCN1CCOCC1)c1cccc(N2C(=O)/C(=C/c3ccc(F)cc3)SC2=S)c1', 'growth', '109% (inactive)'),
  ('CCOP(=O)(OCC)c1nc(-c2ccccc2)oc1NCc1cccnc1', 'growth', '111% (inactive)'),
  ('CCN(CC)CCOc1ccc(C(=C(C)c2ccc(Cl)cc2)c2ccc(OCCN(CC)CC)cc2)cc1', 'growth', '-60.2% (active)'),
  ('COc1ccc(C/C(C)=C(/c2ccc(OCCN3CCCCC3)cc2)c2ccc(OC(=O)NCc3ccccc3)cc2)cc1', 'growth', '-86.2% (active)'),
  ('Cc1cc(Cl)ccc1Nc1nc(C(F)(F)F)ccc1C(=O)N/N=C/c1ccc([N+](=O)[O-])cc1', 'growth', '-33.5% (active)'),
  ('COc1cc(-c2cc(-c3ccc(N(C)C)cc3)nc(N3CCC(O)CC3)c2C#N)cc(OC)c1OC', 'growth', '-54.2% (active)'),
  ('COc1cc2oc(-c3cccc(NC(=O)c4cccc(Br)c4)c3)cc(=O)c2c(OC)c1OC', 'growth', '54% (inactive)'),
  ('CC(C)(C)n1cc(-c2ccnc(NCCNS(=O)(=O)c3cccc4ccccc34)c2)c(-c2cccc(F)c2)n1', 'growth', '-35.3% (active)'),
  ('O=C1/C(=C/c2ccc(Cl)cc2)COc2ccc(O)c(O)c21', 'growth', '69.9% (inactive)'),
  ('COc1ccc2c3c([nH]c2c1)C(=O)c1nc(C)ccc1C3=O', 'growth', '66.7% (inactive)'),
  ('C/C(Nc1ccc(Cl)c(Cl)c1)=C1\CCOC1=O', 'growth', '97% (inactive)'),
  ('CC1=C(C(=O)OC(C)C)C(c2ccc3c(c2)OCO3)NC(=S)N1 (stereo not given)', 'growth', '102% (inactive)'),
  ('COc1cc(CNC(=O)CCCC/C=C/C(C)C)ccc1OCc1nnc(Nc2ccc([N+](=O)[O-])cc2)o1', 'growth', '78.9% (inactive)'),
  ('COC(=O)c1c2c(c[n+]([O-])c1C)C(=O)C(NCc1ccccc1)=CC2=O', 'growth', '-44.4% (active)'),
  ('CC(=O)OCc1nc(C#N)c(N(C)C)o1', 'growth', '88.8% (inactive)'),
  ('Cc1ccc(-c2nc(N3CCNCC3)c3oc(-c4ccccc4)nc3n2)cc1', 'growth', '61.2% (inactive)'),
  ('COc1ccc2cc(C(=O)c3coc4ccc(O)cc34)ccc2c1', 'growth', '97% (inactive)'),
  ('C=CCc1c(O)c(C(=O)/C=C/c2ccc(Cl)cc2)c(OC)c2ccoc12', 'growth', '15.7% (inactive)'),
  ('CC(C)NC1CCC(Nc2ccnc3cc(Cl)ccc23)CC1 (stereo not given)', 'growth', '116% (inactive)'),
  ('COc1ccc2[nH]cc(-c3nc(-c4cn(C)c5c(Cl)nccc45)cs3)c2c1', 'growth', '50.9% (inactive)'),
  ('C1=CN2CC(c3ccccc3)=NNC2c2ccccc21 (stereo not given)', 'growth', '89.7% (inactive)'),
  ('COc1cc(N2C(=O)[C@H](O)C2c2ccc(SC)cc2)cc(OC)c1OC (stereo not given in full)', 'growth', '16.6% (inactive)'),
  ('O=C(NCCCCNC(=O)OCc1ccc2c(Cl)cc(Cl)c(O)c2n1)OCc1ccc2c(Cl)cc(Cl)c(O)c2n1', 'growth', '29.6% (inactive)'),
  ('O=C1Nc2ccccc2[C@]12CC(c1ccccc1)=NN2', 'growth', '44.9% (inactive)'),
  ('COc1cc(OC)c2sc(-c3ccc(-n4cncc4-c4ccc(OC)c(OC)c4)cc3)nc2c1', 'growth', '33.5% (inactive)'),
  ('C#CCOc1ccc2ncnc(Nc3ccc(NC(=O)CCl)cc3)c2c1', 'growth', '-7.65% (active)'),
  ('COc1cccc(NC(=O)Cn2cc(CN3CCN(c4ccnc5cc(Cl)ccc45)CC3)nn2)c1', 'growth', '106% (inactive)'),
  ('CCOC(=O)c1c(C)c2c(n1C)CSc1cc(C(=O)c3ccccc3)c(=O)[nH]c1-2', 'growth', '122% [100 µM] (inactive)'),
  ('O=C1/C(=C/c2ccc(-c3ccc(Br)cc3)o2)SC(=S)N1CCc1ccc(O)cc1', 'growth', '2.89% (active)'),
  ('O=C1c2cc(Cl)ccc2S(=O)(=O)c2c(NCCCNCCO)nc3ccccc3c21', 'growth', '23% (inactive)'),
  ('CCN(c1ccc(Cl)cc1)c1nc(-c2ccc([N+](=O)[O-])cc2)cs1', 'growth', '101% (inactive)'),
  ('CN(Cc1ccc(C(F)(F)F)cc1)CC(O)C(=O)Nc1ccc(Cl)cc1 (stereo not given)', 'growth', '-48.1% (active)');
